- System: EKVX
- EXPERIMENTAL_PROTOCOL: NCI tumour cell line growth inhibition, 48 h
Calls of active or inactive are those of the source. Cut-off read from the data, not from the text of the source: active = GI50 up to about 1.1 µM and inactive = higher.
MEASURED_PROPERTY: GI50

COMPOUND	DATA_VALUE
CC(=O)Nc1ccccc1-c1nc2ccccc2nc1-c1ccccc1	> 100 µM (inactive)
Cc1ccc(S(=O)(=O)NNC2Oc3cc4c(cc3C(c3ccccc3O)C2C)OCO4)cc1 (configuration not stated)	10.7 µM (inactive)
COc1ccc(C(OCC2OC(n3ccc(NC(=O)c4ccccc4)nc3=O)CC2OP2(=S)SCCS2)(c2ccccc2)c2ccc(OC)cc2)cc1 (configuration not stated)	34.5 µM (inactive)
Cc1ccc(S(=O)(=O)Oc2cc(N)c3c(n2)CCC3)cc1	42.3 µM (inactive)
CNC(=S)NC1CCCCC1NC(=S)NC (configuration not stated)	> 100 µM (inactive)
COC(=O)C1C/C(=C/N(C)C)C(=S)N1 (configuration not stated)	> 100 µM (inactive)
Cc1ccnc2c1c(=O)c1ccccc1n2C	30.8 µM (inactive)
CC1=NN(c2nc(N)nc(-c3sccc3N)n2)C(C)(C)C1	82.6 µM (inactive)
CC(C)(C)c1ccc(O)c(C(O)c2ccccn2)c1 (configuration not stated)	54.1 µM (inactive)
Cc1coc2c1CC1OC1(C)CCC1OC1(C)C2 (configuration not stated)	> 100 µM (inactive)
CC(C)C1CN(C(=O)OCc2ccccc2)C2N1C(=O)C2(C)OCc1ccccc1 (configuration not stated)	34 µM (inactive)
COC(=O)c1nc(-c2ccc(Cl)c(Cl)c2)nc2ccc(Cl)cc12	59.7 µM (inactive)
